These measurements were taken from PubChem BioAssay.

# PROTOCOL_NOTES: small-molecule microarray binders of probe aDKK1, primary screen, biochemical, biotinylated probe, 635/667 nm fluorescence (AID 1099);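 also: score merges 667nm spot fluorescence with signal to noise across triplicate slides; reference of the scale not given here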
# CONDITION_DETAILS: higher = more signal
Answer each item with its documented composite z-score.
The answer should be written as a number, with no unit following it.

Query :: Given the compound C=C[C@@H](C)[C@H](O)c1ccc(OCCO)cc1 , what is its reported composite z-score?
Result :: -0.234

Query :: How about C=CCC(OC(C)=O)[C@@H]1[C@@H](N(Cc2ccc(-c3cccc(C(F)(F)F)c3)o2)C(=O)Cc2ccc(OC)cc2)c2cc(OCCCO)ccc2N1C(=O)Cc1ccc2ccccc2c1 (some centres not stated) ?
Result :: -0.178

Query :: How about Cc1cccc([C@H]2C[C@H]3C(I)=C[C@@H]2C(=O)[C@]32CO2)c1 ?
Result :: -0.251

Query :: How about CCOC(=O)C1=C[C@@H](C(C)(C)C)N(S(=O)(=O)c2ccc(C)cc2)[C@H]1c1cccc(Cl)c1 ?
Result :: 0.821

Query :: How about CC(C)c1ccc(NN2C(C(O)Cc3ccccc3)C=CC3C(=O)N(c4ccccc4)C(=O)C32)cc1 (configuration not stated) ?
Result :: 0.655

Query :: How about C=CCNC(=O)[C@@H]1[C@H]2C(=O)O[C@H](c3ccccc3)[C@H](c3ccccc3)N2[C@H](c2ccc(OCCO)cc2)[C@@]12C(=O)N(C(=O)OCCOC)c1ccc(C#CCCO)cc12 ?
Result :: -0.0139

Query :: How about COCCOC(=O)N1C(=O)[C@@]2(c3cc(C#CCNC(N)=O)ccc31)[C@H](c1ccc(OCCO)cc1)N1[C@H](c3ccccc3)[C@H](c3ccccc3)OC(=O)[C@H]1[C@@H]2C(N)=O ?
Result :: 0.695
